System: Human immunodeficiency virus 1
assay_protocol: Antiviral activity against HIV1 LAV1 infected in PHA-stimulated human PBMC assessed as reduction in RT activity after 6 days by micromethod-based beta scintillation counting
Format: functional, organism-based
measurement_setup: Human immunodeficiency virus 1, LAV1, 144 h
Listing of recorded EC50 by entry.
property_label: EC50 (µM)

COC(=O)/C=C/c1cn([C@H]2O[C@H](CO)[C@@H](O)[C@@]2(C)F)c2ncnc(N)c12
0.71
C[C@@]1(F)[C@H](O)[C@@H](CO)O[C@H]1n1cc(C#Cc2ccccc2)c2c(N)ncnc21
10.7

----------
Listing of recorded IC50 by entry.
system_name: RNA-directed RNA polymerase (Hepacivirus hominis, UniProt O39930, S282T)
Sequence (O39930 entry or part of it S282T): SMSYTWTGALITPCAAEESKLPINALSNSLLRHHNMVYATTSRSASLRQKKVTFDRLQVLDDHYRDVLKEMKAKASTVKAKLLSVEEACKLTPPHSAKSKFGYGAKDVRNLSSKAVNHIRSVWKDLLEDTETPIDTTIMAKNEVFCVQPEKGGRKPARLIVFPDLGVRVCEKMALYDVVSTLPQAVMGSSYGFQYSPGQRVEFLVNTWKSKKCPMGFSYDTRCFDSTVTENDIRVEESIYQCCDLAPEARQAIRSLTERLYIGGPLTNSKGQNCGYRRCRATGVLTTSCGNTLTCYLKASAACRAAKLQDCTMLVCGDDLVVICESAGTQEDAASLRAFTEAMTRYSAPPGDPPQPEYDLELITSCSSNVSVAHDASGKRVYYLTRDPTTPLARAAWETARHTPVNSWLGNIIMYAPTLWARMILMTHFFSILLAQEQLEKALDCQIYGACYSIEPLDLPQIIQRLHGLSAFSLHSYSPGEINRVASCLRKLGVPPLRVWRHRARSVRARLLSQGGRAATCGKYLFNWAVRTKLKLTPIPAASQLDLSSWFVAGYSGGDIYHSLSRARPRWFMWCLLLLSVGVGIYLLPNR
assay_protocol: Inhibition of Hepatitis C virus NS5B Cdelta 21 RNA dependent RNA polymerase S282T mutant expressed in Escherichia coli BL21(DE3)
property_label: IC50 (µM)

COP(=O)(OC)OP(=O)(OC)OP(=O)(OC)OC[C@H]1O[C@@H](n2cc(F)c3c(N)ncnc32)[C@](C)(F)[C@@H]1O (some centres not stated)
6
COP(=O)(OC)OP(=O)(OC)OP(=O)(OC)OC[C@H]1O[C@@H](n2ccc3c(N)ncnc32)[C@](C)(F)[C@@H]1O (some centres not stated)
15
